# Test system: CCRF-CEM
# protocol-details: NCI tumour cell line growth inhibition, 48 h
Calls of active or inactive are those of the source. Cut-off read from the data, not from the text of the source: active = GI50 up to about 1.1 µM and inactive = higher.
Entries and their measured GI50 follow.
readout-kind: GI50

compound: CCOC(=O)c1cnccc1CC1(C#N)c2ccccc2C=CN1C(=O)c1ccccc1 (stereo not given)
observed: 40.3 µM (inactive)
--
compound: CC1(C=O)CCC23COC4(CCC5C6(C)CCC(OC7OCC(OC8OC(CO)C(O)C(OC9OC(CO)C(O)C(O)C9O)C8OC8OCC(O)C(O)C8O)C(O)C7OC7OC(CO)C(O)C(O)C7O)C(C)(C)C6CCC5(C)C4(C)CC2O)C3C1 (stereo not given)
observed: 0.221 µM (active)
--
compound: CN1CCN(CCNc2ccc(CO)c3sc4ccccc4c(=O)c23)CC1
observed: 4.34 µM (inactive)
--
compound: O=C(C(=O)c1cc2ccccc2[nH]1)c1cc2ccccc2[nH]1
observed: > 247 µM (inactive)
--
compound: CCN(CC)CCN1CCc2c([nH]c3ccccc23)C1c1cccnc1 (stereo not given)
observed: 94.6 µM (inactive)
--
compound: CC(C)(C)OC(=O)NC(CSCc1ccc(C(=O)c2ccccc2)cc1)C(=O)O (stereo not given)
observed: > 100 µM (inactive)
--
compound: O=c1[nH]c(=S)[nH]c(-c2ccccc2)c1Cc1c(O)ccc2ccccc12 [CAMBINOL]
observed: 19.9 µM (inactive)
--
compound: C[C@@H]1[C@@H](c2ccccc2)O[B-](c2ccccc2)(c2ccccc2)N1C
observed: 12.9 µM (inactive)
--
compound: COC(=O)c1cc(/C=C2\Cc3cc4c(cc3C2=O)CCC4)cc2c1CCC2
observed: > 100 µM (inactive)
--
compound: O=C(c1ccc(Cl)cc1)C(O)c1ccc(Cl)cc1 (stereo not given)
observed: > 100 µM (inactive)
--
compound: Cc1c2ccccc2c(C)n2c1nc1ccccc12
observed: 5.06 µM (inactive)
--
compound: N/N=C(\CC1OC(=O)c2ccccc21)c1ccco1 (stereo not given)
observed: 59.2 µM (inactive)
--
compound: O=C1c2ccccc2S(=O)(=O)c2cc(-c3nn[nH]n3)ccc21 [DOXANTRAZOLE]
observed: > 100 µM (inactive)
--
compound: CCOC(=O)/C=C(\N=P(c1ccccc1)(c1ccccc1)c1ccccc1)C(F)(F)C(F)(F)C(F)(F)C(F)(F)C(F)(F)F
observed: > 100 µM (inactive)
--
compound: CC1=NN(c2cccc(Cl)c2)C(=N/c2nc3ccccc3s2)/C1=C\c1ccc(Cl)cc1
observed: 26.1 µM (inactive)
--
compound: Cc1cc2c(=O)c3ccccc3[nH]c2c(C(=O)O)c1C
observed: > 100 µM (inactive)
--
compound: Cc1cc(N(CCC#N)CCC#N)ccc1/C=C(/NC(=O)/C=C/c1ccccc1)C(N)=O
observed: > 100 µM (inactive)
--
compound: CS(=O)(=O)Nc1ccc(Nc2ccnc3ccc4[nH]ccc4c23)cc1
observed: 4.35 µM (inactive)
--
compound: C[C@]12CCC(=O)C(O)=C1CC[C@@H]1C2CC[C@]2(C)Nc3c(cnn3-c3ccccc3)CC12 (stereo not given in full)
observed: 37.2 µM (inactive)
--
compound: CCOc1ccncc1[N+](=O)[O-]
observed: > 100 µM (inactive)

====

# System: Malme-3M
# protocol-details: NCI tumour cell line growth inhibition, 48 h
Active and inactive are the calls of the source. Rule as the data show it: active = GI50 up to about 1.1 µM and inactive = higher.
Outcomes: 1 for active, 0 for inactive

molecule: CCOC(=O)CCC(NC(=O)OCc1ccccc1)C(=O)NC(CCC(=O)OCC)C(=O)NC(CCC(=O)OCC)C(=O)NC(CCC(=O)OCC)C(=O)NC(CCC(=O)OCC)C(=O)NC(CCC(=O)OCC)C(=O)NC(CCC(=O)OCC)C(=O)OCC (stereo not drawn)
label: 0
//
molecule: OCC(O)C(O)C(O)c1nn(-c2ccccc2)c2nc3cc(Cl)c(Cl)cc3nc12 (stereo not drawn)
label: 0
//
molecule: Cc1cc(NC(=O)NC(=O)c2ccccc2NC(=O)CN)ccc1Oc1ncc(Br)cn1
label: 1
